Record form. Attribute: Mean in M1. Fill in for each entry.
# STUDY_SYSTEM: T1, mouse PD-L1 on mPD-L1/CHO-K1 overexpressing cells (mouse, UniProt Q9EP73 19-290)
# T1 construct: whole, on cells; also called mouse PD-L1-expressing cells
# T1 sequence (Q9EP73 19-290): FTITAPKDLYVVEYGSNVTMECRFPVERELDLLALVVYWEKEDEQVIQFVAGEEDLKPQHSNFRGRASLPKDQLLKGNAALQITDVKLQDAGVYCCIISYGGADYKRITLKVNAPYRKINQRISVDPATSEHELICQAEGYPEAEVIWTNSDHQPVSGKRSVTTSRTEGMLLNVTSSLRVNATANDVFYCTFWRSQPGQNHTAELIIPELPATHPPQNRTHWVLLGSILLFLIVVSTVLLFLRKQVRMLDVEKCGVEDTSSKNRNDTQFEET
# EXPERIMENT: flow cytometry on mPD-L1/CHO-K1 cells (sheet label mPD-1/CHO-K1)
Answers are plain numbers.

BINDER: ME4.A12 anti-PD-L1 antibody (IgG form) (antibody, V domains shown) VH: QVQLVESGAEVKKPGSSVKVSCKASGGTFNNYAVSWVRQAPGQGLEWMGRIIPILGIANYAQTFQGRVTITADKSTTTAYMELSSLRSEDTAVYYCARSHWGYAHGAFDIWGQGTMVTVSS VL: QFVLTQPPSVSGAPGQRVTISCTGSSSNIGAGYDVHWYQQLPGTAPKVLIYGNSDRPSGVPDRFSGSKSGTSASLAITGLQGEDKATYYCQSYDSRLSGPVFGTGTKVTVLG
VALUE: 14.4

# return Mean in M1 for each item in the list
1. ME4.B12 anti-PD-L1 antibody (IgG form) (antibody, V domains shown) VH: QVQLVESGAEVKKPGSSVKVSCKASGGTFNNYAVSWVRQAPGQGLEWMGRIIPILGIANYAQTFQGRVTITADKSTTTAYMELSSLRSEDTAVYYCARSSFGYSVGAFDIWGQGTMVTVSS VL: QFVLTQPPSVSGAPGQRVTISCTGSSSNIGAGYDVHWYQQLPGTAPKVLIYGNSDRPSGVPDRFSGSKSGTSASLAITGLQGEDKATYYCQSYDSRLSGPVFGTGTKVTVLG
2. ME4.A2 anti-PD-L1 antibody (IgG form) (antibody, V domains shown) VH: QVQLVESGAEVKKPGSSVKVSCKASGGTFNNYAVSWVRQAPGQGLEWMGRIIPILGIANYAQTFQGRVTITADKSTTTAYMELSSLRSEDTAVYYCARSSRGYAHGAFDIWGQGTMVTVSS VL: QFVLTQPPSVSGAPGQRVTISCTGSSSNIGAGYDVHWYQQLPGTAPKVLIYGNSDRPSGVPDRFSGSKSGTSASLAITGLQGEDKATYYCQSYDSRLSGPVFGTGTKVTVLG

Response given:
[16.6, 20.3]

Hey, just so you know, these numbers are from patent US20210054078A1.
